- system-name: U1A (human, UniProt P09012 1-282)
- Sequence (P09012 whole entry): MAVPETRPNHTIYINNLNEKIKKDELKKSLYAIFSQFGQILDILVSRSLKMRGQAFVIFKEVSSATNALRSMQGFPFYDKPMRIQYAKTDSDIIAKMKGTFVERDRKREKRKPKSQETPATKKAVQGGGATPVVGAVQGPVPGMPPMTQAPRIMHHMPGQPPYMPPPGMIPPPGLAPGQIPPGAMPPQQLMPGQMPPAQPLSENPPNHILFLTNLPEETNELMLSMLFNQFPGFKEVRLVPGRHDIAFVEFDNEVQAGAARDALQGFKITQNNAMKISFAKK
- method-summary: ITC

>  <binder>
GGAGUUUUCCAGGACGUAUUGCAGUACCUCGUCCUGG (structured_RNA) [SLIV ITC construct]

>  <Kd, nM>
100

$$$$
